Target: Androgen receptor (AR) (Homo sapiens, UniProt P10275, T878A)
Construct: 5.5×10^5 LNCap cells were injected into each well of a 6-well plate; endogenous in cells; host or cells: LNCaP
Experiment: Assessment of AR proteolytic activity (Western blotting of LNCap cell lysates)
Format: cell-based
Conditions: 24 hours of treatment, Western blotting quantified with Image J
experimentalEndpoint: Degradation (1 μM treated in LNCaP, % AR remaining) (%)
Return type: number; implicit unit %.

I would be grateful if you could share the reported Degradation (1 μM treated in LNCaP, % AR remaining) for CC1(C)[C@H](NC(=O)c2ccc(N3CCN(C4CC5(CCN(C(=O)CNc6ccc7nnn(C8CCC(=O)NC8=O)c(=O)c7c6)CC5)C4)CC3)cc2)C(C)(C)[C@H]1Oc1ccc(C#N)c(Cl)c1 (stereo partly drawn) [Example 19] . 23

Please give the measured Degradation (1 μM treated in LNCaP, % AR remaining) for this molecule: CC1(C)C(NC(=O)c2ccc(C#CCN3CC4(CCN(c5ccc6c(=O)n(C7CCC(=O)NC7=O)nnc6c5)CC4)C3)nc2)C(C)(C)C1Oc1ccc(C#N)c(Cl)c1 (stereo not drawn) [Example 179] 8

# Degradation (1 μM treated in LNCaP, % AR remaining) lookup, item [C-]#[N+]c1ccc(OC2C(C)(C)C(NC(=O)c3ccc(N4CCN(CCc5cn(-c6ccc7nnn(C8CCC(=O)NC8=O)c(=O)c7c6)nn5)CC4)cc3)C2(C)C)cc1Cl (stereo not drawn) [Example 77] 74

====

Target: Androgen receptor (AR) (Homo sapiens, UniProt P10275, T878A)
Construct: 5.5×10^5 LNCap cells were injected into each well of a 6-well plate; endogenous in cells; host or cells: LNCaP
Sequence (P10275 1-920 T878A): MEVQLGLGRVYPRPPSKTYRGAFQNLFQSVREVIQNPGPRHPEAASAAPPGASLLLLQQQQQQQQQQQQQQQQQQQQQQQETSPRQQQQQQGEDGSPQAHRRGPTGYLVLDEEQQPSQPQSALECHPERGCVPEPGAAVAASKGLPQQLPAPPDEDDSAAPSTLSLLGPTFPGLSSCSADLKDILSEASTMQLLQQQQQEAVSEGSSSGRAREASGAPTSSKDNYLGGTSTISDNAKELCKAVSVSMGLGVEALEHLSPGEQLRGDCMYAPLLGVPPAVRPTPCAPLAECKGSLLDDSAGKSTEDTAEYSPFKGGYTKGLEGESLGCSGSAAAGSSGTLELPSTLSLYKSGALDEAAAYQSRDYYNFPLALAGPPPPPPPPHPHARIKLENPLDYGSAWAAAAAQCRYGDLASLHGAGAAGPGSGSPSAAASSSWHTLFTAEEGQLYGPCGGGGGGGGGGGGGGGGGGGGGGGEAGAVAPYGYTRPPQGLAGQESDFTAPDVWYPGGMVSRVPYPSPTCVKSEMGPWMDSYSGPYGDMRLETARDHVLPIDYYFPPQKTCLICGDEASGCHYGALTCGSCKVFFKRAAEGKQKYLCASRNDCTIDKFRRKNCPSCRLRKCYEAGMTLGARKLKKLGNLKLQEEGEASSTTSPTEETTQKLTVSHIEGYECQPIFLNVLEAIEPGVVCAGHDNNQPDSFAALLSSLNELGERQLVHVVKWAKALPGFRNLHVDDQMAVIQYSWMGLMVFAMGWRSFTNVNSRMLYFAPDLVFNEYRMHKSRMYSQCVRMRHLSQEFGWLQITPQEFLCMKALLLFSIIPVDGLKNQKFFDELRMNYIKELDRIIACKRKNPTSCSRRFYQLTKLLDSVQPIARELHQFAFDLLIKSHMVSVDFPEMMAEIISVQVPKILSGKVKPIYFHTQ
Test: Assessment of AR proteolytic activity (Western blotting of LNCap cell lysates)
Type: cell-based
Conditions: 24 hours of treatment, Western blotting quantified with Image J
Method: Assessment of AR Proteolytic Activity Androgen receptor (AR) proteolytic activity of the compound according to the present invention was evaluated as follows: Specifically, 5.5×10^5 LNCap cells were injected into each well of a 6-well plate. […] Western blotting was performed, and the results were quantified using Image J program.
Please go through the items and note down their Degradation (1 μM treated in LNCaP, % AR remaining).
Give the quantity in %, number only.

Which Degradation (1 μM treated in LNCaP, % AR remaining) is listed for CC1(C)C(NC(=O)c2ccc(N3CC4CC3CN4CC3CCN(c4ccc5nnn(C6CCC(=O)NC6=O)c(=O)c5c4)CC3)cc2)C(C)(C)C1Oc1ccc(C#N)c(Cl)c1 (centres unmarked) ? 92

Returns the measured Degradation (1 μM treated in LNCaP, % AR remaining) for the input compound. Input: CC1(C)[C@H](NC(=O)c2ccc(N3CCN(CCCC4CCN(C(=O)C5CN(c6ccc7nnn(C8CCC(=O)NC8=O)c(=O)c7c6)C5)CC4)CC3)cc2)C(C)(C)[C@H]1Oc1ccc(C#N)c(Cl)c1 (some centres unmarked) 43.6

Any idea what Degradation (1 μM treated in LNCaP, % AR remaining) was measured for CC1(C)[C@H](NC(=O)c2ccc(N3CCN(C4CC5(CCN(c6cccc7nnn(C8CCC(=O)NC8=O)c(=O)c67)CC5)C4)CC3)cc2)C(C)(C)[C@H]1Oc1ccc(C#N)c(Cl)c1 (some centres unmarked) ? 74

Give the measured Degradation (1 μM treated in LNCaP, % AR remaining) of CC1(C)C(NC(=O)c2ccc(N3CCC(CN4CCN(c5ccc6nnn(C7CCC(=O)NC7=O)c(=O)c6c5)CC4)CC3)cc2)C(C)(C)C1Oc1ccc(C#N)c(Cl)c1 (centres unmarked) . 13

May I ask what Degradation (1 μM treated in LNCaP, % AR remaining) has been recorded for CC1(C)[C@H](NC(=O)c2ccc(N3CCN(CCC4CCN(C(=O)CNc5ccc6nnn(C7CCC(=O)NC7=O)c(=O)c6c5)CC4)CC3)cc2)C(C)(C)[C@H]1Oc1ccc(C#N)c(Cl)c1 (some centres unmarked) ? 50
